Assayed system: GABA A receptor alpha-2/beta-2/gamma-2 (Homo sapiens, UniProt P18507+P47869+P47870)
Sequence (P47870 whole entry): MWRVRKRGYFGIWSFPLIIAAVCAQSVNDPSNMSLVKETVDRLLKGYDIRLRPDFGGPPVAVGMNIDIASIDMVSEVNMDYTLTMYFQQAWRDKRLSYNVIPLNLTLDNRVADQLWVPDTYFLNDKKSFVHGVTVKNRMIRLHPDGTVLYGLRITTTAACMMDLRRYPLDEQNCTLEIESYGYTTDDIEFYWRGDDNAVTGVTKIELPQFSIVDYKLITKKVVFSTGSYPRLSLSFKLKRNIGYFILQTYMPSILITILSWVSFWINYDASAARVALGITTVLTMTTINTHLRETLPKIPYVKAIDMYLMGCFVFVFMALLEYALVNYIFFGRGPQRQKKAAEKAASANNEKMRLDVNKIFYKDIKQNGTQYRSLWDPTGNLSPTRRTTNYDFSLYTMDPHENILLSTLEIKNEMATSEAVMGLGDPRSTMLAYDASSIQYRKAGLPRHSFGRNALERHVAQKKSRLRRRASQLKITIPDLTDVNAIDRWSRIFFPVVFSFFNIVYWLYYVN
Sequence (P18507 whole entry): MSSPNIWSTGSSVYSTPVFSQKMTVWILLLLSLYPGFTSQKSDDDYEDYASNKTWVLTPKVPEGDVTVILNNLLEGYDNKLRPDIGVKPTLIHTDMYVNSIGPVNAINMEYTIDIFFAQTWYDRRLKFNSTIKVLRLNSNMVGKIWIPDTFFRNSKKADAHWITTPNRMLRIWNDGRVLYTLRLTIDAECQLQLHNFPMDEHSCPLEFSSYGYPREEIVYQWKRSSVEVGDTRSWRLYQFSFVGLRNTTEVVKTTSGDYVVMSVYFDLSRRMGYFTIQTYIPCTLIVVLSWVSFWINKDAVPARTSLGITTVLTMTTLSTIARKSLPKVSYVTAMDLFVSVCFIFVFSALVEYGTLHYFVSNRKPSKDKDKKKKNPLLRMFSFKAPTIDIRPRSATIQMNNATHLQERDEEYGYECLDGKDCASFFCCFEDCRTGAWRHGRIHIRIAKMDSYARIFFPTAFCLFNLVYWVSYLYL
Sequence (P47869 whole entry): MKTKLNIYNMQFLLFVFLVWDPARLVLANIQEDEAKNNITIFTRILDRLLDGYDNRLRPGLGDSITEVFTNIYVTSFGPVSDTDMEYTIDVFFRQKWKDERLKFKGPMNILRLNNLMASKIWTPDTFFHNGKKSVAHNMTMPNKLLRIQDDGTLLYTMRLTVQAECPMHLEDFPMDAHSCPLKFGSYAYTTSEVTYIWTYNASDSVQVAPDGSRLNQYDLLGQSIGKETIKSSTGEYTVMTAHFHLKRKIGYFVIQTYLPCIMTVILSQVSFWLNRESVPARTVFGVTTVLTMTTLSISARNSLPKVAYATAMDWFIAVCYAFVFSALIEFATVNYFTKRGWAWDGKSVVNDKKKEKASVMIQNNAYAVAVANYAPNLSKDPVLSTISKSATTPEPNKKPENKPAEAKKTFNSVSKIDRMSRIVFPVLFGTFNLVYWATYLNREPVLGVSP
Procedure details: Effective concentration against GABA-evoked chloride currents mediated by human Gamma-aminobutyric acid GABA-A receptor alpha2-beta2-gamma2L expressed in Xenopus oocytes
Measured quantity: log10 of EC50 (log10 of the value in µM)
Parameter value (number): base-10 log of EC50 in µM.

log10 of EC50 recorded for this molecule, CCOC(=O)c1cn(-c2ccc(Cl)cc2Cl)c(-c2ccc(I)cc2)n1 , is -0.35

log10 of EC50 recorded for this molecule, CCOC(=O)c1cn(-c2ccc(Cl)cc2Cl)c(-c2ccc(C)cc2)n1 , is 0.00

log10 of EC50 recorded for this molecule, CCN(CC)C(=O)c1cn(-c2ccc(Cl)cc2Cl)c(-c2ccc(Cl)cc2)n1 , is 0.64

Continuing:
log10 of EC50 recorded for this molecule, CCOC(=O)c1cn(-c2ccc(Cl)cc2Cl)c(-c2ccc(Br)cc2)n1 , is -0.72

log10 of EC50 recorded for this molecule, CCOC(=O)c1cn(-c2cccc(Cl)c2)c(-c2ccccc2)n1 , is 0.48

log10 of EC50 recorded for this molecule, CCOC(=O)c1cn(-c2ccc(Cl)cc2)c(-c2ccc(Cl)cc2)n1 , is 0.18
